Ref: patent US20250171542A1

- EXPERIMENTAL_SYSTEM: T1, CD86 (Sino Biological, Cat #10699-H08H) (UniProt P42081 24-245)
- T1 sequence (looked up): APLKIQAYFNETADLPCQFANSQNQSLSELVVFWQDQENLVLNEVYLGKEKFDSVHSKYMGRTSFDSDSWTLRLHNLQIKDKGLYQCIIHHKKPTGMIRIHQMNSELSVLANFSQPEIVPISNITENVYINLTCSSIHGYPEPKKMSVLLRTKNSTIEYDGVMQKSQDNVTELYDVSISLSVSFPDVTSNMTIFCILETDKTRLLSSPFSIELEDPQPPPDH
- ASSAY_TEXT: ELISA

BINDER	binding result
32E2 (antibody, human IgG1, V domains shown) VH: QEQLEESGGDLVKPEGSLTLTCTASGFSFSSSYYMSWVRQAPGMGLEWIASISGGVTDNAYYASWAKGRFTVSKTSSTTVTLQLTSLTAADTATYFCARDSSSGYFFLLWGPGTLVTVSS VL: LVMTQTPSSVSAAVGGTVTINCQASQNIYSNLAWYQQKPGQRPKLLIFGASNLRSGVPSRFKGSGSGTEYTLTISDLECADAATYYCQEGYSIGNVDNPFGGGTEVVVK	no binding
62E6 (antibody, human IgG1, V domains shown) VH: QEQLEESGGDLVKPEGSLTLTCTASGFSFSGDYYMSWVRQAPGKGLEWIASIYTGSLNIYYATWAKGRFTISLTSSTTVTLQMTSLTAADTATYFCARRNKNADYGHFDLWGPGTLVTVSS VL: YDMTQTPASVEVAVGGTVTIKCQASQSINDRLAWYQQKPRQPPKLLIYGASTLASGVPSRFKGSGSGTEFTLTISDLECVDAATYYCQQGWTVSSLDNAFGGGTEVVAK	no binding
33E8 (antibody, human IgG1, V domains shown) VH: QSLEESGGDLVKPGASLTLTCTASGFYFSSGYDMSWVRQAPGKGLEWIASIFTTSGSTWYANWAKGRFTISKTSSTTVTLQMTSLTDADTATYFCTKDGVGSFYMNLWGPGTLVTVSS VL: LVMTQTPASVEVAVGGTVTIKCQASQTIGSNLAWYQQRPGQPPKLLIYKAFTLASGVSSRFKGSGSGTQFTLTISGVECADAATYYCQQGATRINIDNAFGGGTEVVVK	no binding
57B10 (antibody, human IgG1, V domains shown) VH: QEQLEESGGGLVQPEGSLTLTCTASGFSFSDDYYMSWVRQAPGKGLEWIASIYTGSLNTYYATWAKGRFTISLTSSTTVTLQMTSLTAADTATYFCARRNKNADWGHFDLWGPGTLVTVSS VL: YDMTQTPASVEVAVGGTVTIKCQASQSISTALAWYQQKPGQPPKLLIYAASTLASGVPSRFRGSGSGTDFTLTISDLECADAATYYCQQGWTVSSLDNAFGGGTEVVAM	no binding
56H3 (antibody, human IgG1, V domains shown) VH: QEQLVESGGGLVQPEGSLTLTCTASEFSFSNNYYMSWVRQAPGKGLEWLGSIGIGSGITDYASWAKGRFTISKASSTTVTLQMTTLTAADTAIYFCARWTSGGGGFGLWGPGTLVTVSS VL: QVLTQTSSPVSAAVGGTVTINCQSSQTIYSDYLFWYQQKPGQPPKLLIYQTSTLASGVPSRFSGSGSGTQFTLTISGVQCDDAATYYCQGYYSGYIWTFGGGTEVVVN	no binding
